Reference for the values: ChEMBL document CHEMBL5137099

assay: Tmax in C3H/J mouse at 300 mg/kg, po by LC-MS/MS analysis; format: ADME, organism-based; details: in vivo
RESULT_TYPE: Tmax (h)
Your answer should be a plain number; it is taken to be in h.

Task: Endpoint output: Tmax of O=C(O)[C@@H]1CCN(c2ccc3c(=O)c4cccc(Cl)c4oc3c2)C1 . Value?
Result: 2.67

---

test: AUC (0 to infinity) in C57BL/6 mouse at 5 mg/kg, po by LC-MS/MS analysis; format: ADME, organism-based; set-up: time infinity, dose 5 mg/kg, route po; details: in vivo
RESULT_TYPE: AUC(0-inf) (ng·h/mL)
Please reply with the bare figure in ng·h/mL and do not write the unit itself.

Task: What does the data say about its AUC(0-inf)? Entry: O=C(O)C1CCN(c2ccc3c(=O)c4cccc(Cl)c4oc3c2)C1 (racemic)
Result: 2680
